Assay context: buffer; pH 7.4; 200.0 µM
Readout label: solubility kinetic

Consider the following illustrative entries.
CC(=O)Nc1nnc(SCC(=O)NC2CC2)s1 :: > 40.9 µg/mL
CC(C)N(Cc1ccccc1)C(=O)COC(=O)c1c(F)cccc1F :: > 52.1 µg/mL
CCCCNC(=O)c1cc2c(=O)n(CC)c3ccccc3c2s1 :: < 0.4 µg/mL
On1c(-c2ccc(Cl)cc2Cl)nc2ncccc21 :: > 42 µg/mL
COc1ccc(CNC(=O)CSc2nc3ccc(OC)cc3[nH]2)cc1 :: > 53.6 µg/mL

Dear reader, for each entry below, please note its solubility kinetic.
1. CCCCNC(=O)C(=O)NCCCn1ccnc1
2. Cc1cccc(C)c1NC(=O)CN.Cl
3. O=C(Cn1cc([N+](=O)[O-])ccc1=O)NC1CCCCC1
4. CCCCn1c(SCC(=O)N(C)C)nnc1-c1ccncc1
5. N=c1oc2cc(O)ccc2cc1C(=O)Nc1ccc(Cl)cc1
6. Cc1nn(CC(=O)NC(C)C)c(C)c1[N+](=O)[O-]
7. COc1ccccc1/C=C/C(=O)OCC(=O)N1CCCCC1
8. COc1cc(NC(=O)Nc2cc(C)on2)cc(OC)c1OC

> 37.8 µg/mL
> 32.2 µg/mL
> 41.9 µg/mL
> 47.9 µg/mL
1.1 µg/mL
> 36 µg/mL
> 45.5 µg/mL
37.8 µg/mL
